- TARGET_OF_ASSAY: α4β1 integrin (Homo sapiens, UniProt P05556+P13612)
- Construct: endogenous in cells; host or cells: Ramos cells
- Sequence (P13612 34-1032): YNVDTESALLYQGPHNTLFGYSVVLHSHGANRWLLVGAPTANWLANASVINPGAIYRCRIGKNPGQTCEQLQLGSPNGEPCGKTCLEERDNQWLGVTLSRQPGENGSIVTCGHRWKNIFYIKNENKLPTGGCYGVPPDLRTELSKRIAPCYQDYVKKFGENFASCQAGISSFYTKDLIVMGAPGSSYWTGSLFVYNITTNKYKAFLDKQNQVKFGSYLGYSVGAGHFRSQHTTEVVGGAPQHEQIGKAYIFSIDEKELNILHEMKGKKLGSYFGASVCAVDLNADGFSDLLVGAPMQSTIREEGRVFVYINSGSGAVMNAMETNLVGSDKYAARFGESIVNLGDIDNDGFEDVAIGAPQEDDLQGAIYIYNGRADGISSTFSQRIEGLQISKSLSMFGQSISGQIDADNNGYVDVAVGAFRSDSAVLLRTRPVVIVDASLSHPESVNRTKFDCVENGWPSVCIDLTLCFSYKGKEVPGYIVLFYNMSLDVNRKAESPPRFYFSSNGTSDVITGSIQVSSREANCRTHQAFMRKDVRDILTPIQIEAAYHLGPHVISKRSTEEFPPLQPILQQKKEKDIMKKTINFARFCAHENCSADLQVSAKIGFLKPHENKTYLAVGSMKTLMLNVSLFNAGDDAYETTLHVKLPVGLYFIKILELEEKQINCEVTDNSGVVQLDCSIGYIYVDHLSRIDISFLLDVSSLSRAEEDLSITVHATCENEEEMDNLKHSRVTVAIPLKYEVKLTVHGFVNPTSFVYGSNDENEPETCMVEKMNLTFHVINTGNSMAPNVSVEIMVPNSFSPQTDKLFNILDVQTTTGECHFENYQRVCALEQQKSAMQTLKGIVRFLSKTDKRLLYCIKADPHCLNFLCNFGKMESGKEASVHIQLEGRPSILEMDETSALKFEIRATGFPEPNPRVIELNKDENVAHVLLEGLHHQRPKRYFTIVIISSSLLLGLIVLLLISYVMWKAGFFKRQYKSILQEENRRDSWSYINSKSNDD
- Sequence (P05556 21-798): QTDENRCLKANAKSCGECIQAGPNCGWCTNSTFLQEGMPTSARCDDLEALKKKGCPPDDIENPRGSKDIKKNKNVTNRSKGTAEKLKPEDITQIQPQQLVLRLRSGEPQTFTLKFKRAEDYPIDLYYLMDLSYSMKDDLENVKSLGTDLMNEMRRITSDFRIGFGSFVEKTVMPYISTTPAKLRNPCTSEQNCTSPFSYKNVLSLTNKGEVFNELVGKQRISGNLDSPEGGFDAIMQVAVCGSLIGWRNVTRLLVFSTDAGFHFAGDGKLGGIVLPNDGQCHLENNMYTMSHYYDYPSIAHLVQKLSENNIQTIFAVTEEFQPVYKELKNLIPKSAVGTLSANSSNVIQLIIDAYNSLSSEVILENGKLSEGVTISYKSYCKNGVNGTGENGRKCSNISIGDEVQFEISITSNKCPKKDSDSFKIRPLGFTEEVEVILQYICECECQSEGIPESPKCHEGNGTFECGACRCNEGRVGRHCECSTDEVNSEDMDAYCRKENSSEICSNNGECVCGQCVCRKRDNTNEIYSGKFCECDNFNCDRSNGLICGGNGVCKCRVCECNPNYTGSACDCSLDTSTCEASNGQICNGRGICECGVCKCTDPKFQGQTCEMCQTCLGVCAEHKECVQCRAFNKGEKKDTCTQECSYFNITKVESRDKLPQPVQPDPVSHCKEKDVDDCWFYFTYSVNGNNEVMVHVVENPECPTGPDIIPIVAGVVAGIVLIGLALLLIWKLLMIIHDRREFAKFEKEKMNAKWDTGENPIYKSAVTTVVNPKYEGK
- ASSAY: Adhesion of calcein-labeled Ramos cells to CS1 (fibronectin) peptide conjugated ovalbumin
- Assay type: cell-based
- CONDITION_DESCRIPTION: Table 6; Ramos cell adhesion to CS1 conjugated ovalbumin, 30 minutes at 37° C.
ASSAY_READOUT: IC50 (nM)

As a guide, the following entries are already answered.
{"SUBSTANCE_SMILES": "Cc1cn(Cc2ccccc2Cl)c(=O)c(NC(=O)N[C@@H](CC(=O)O)c2cccc(C(F)(F)F)c2)c1O", "NUMERIC_RESULT": 10}
{"SUBSTANCE_SMILES": "Cc1ccc([C@H](CC(=O)O)NC(=O)Nc2c(O)c(C)nn(Cc3ccccc3Cl)c2=O)cc1", "NUMERIC_RESULT": 18}
{"SUBSTANCE_SMILES": "CCCc1cn(Cc2c(Cl)cccc2OC)c(=O)c(NC(=O)N[C@@H](CC(=O)O)c2ccc(C)c(C)c2)c1O", "NUMERIC_RESULT": 17}
{"SUBSTANCE_SMILES": "COc1cc([C@H](CC(=O)O)NC(=O)Nc2c(O)c(C)cn(Cc3c(Cl)cccc3OC)c2=O)ccc1C", "NUMERIC_RESULT": 6}
{"SUBSTANCE_SMILES": "CCCc1cn(Cc2c(Cl)cccc2OC)c(=O)c(NC(=O)N[C@@H](CC(=O)O)c2ccc(OCC)c(OCC)c2)c1O", "NUMERIC_RESULT": 3}
{"SUBSTANCE_SMILES": "COc1cccc([C@H](CC(=O)O)NC(=O)Nc2c(O)c(C)cn(Cc3ccccc3Cl)c2=O)c1", "NUMERIC_RESULT": 3}

[P] COc1cc([C@H](CC(=O)O)NC(=O)Nc2c(O)c3ccccc3n(Cc3ccccc3Cl)c2=O)ccc1C
[Q] CSc1cccc(Cn2ccc(O)c(NC(=O)N[C@@H](CC(=O)O)c3ccc(C)cc3)c2=O)c1
[R] Cn1ccc2cc([C@H](CC(=O)O)NC(=O)Nc3c(O)ccn(Cc4ccccc4Cl)c3=O)ccc21
[S] CCOc1cccc(Cl)c1Cn1ccc(O)c(NC(=O)N[C@@H](CC(=O)O)c2ccc(C)cc2)c1=O
[T] O=C(O)C[C@@H](Cc1cccc2ccccc12)NC(=O)Nc1c(O)ccn(Cc2ccccc2Cl)c1=O
Form: Sort by [IC50] Order [ ascending ] Give the order by naming the labels one after another as requested.
R, S, P, Q, T

====

- TARGET_OF_ASSAY: α4β1 integrin (Homo sapiens, UniProt P05556+P13612)
- Construct: endogenous in cells; host or cells: Ramos cells
- ASSAY: Adhesion of calcein-labeled Ramos cells to CS1 (fibronectin) peptide conjugated ovalbumin
- Type: cell-based
- CONDITION_DESCRIPTION: Table 4; Ramos cell adhesion to CS1 conjugated ovalbumin, 30 minutes at 37° C.
pIC50: −log10 of the molar value.
ASSAY_READOUT: pIC50

{"SUBSTANCE_SMILES": "Cc1cc([C@H](CC(=O)O)NC(=O)Nc2cccn(Cc3ccccc3Cl)c2=O)ccc1O", "ASSAY_READOUT": "pIC50", "NUMERIC_RESULT": 7.15}
{"SUBSTANCE_SMILES": "Cc1ccc([C@H](CC(=O)O)NC(=O)Nc2cccn(Cc3ccccc3Cl)c2=O)cc1C", "ASSAY_READOUT": "pIC50", "NUMERIC_RESULT": 7.05}
{"SUBSTANCE_SMILES": "O=C(O)C[C@H](NC(=O)Nc1cccn(Cc2ccccc2Cl)c1=O)c1ccc(O)cc1", "ASSAY_READOUT": "pIC50", "NUMERIC_RESULT": 7.00}

Origin of measurements: patent US6972296B2
